Recorded MIC values for a group of molecules are listed next.
System: A. baumannii ATCC BAA-1710
Parameter measured: MIC (mg/L)

1. CNC1C(O[C@H]2OC(CO)[C@@H](NC(=N)N)CC2O)O[C@H]2CC(N)[C@@H](O[C@@H]3C(N)C[C@@H](N)C(O)[C@H]3F)OC2C1O (stereo partly shown) :: 16
2. CNC1C(O[C@H]2OC(CO)[C@@H](N(CCN)CCN)[C@H](O)C2O)O[C@H]2CC(N)[C@@H](O[C@@H]3C(N)C[C@@H](N)C(O)[C@H]3O)OC2C1O (stereo partly shown) :: 4
3. CNC1C(O[C@H]2OC(CO)[C@@H](NC(=O)CN)[C@H](O)C2O)O[C@H]2C[C@H](N)[C@@H](O[C@@H]3C(N)C[C@@H](N)C(O)[C@H]3N)OC2C1O (stereo partly shown) :: 8
4. CNC1C(O[C@H]2OC(CO)[C@@H](NCCCN)[C@H](O)C2O)O[C@H]2CC(N)[C@@H](O[C@H]3CC[C@H](N)CC3N)OC2C1O (stereo partly shown) :: 4
5. CNC1C(O[C@H]2OC(CO)[C@@H](NC(CN)CN)[C@H](O)C2O)O[C@H]2CC(N)[C@@H](O[C@H]3CC(O)[C@H](N)CC3N)OC2C1O (stereo partly shown) :: 8
6. CNC1C(O[C@H]2OC(CO)[C@@H](NC(=O)[C@@H](N)CO)[C@H](O)C2O)O[C@H]2CC(N)[C@@H](O[C@@H]3C(N)C[C@@H](N)C(O)[C@H]3O)OC2C1O (stereo partly shown) :: 16
7. CNC1C(O[C@H]2OC(CO)[C@@H](NC(CN)CN)[C@H](O)C2O)O[C@H]2CC(N)[C@@H](O[C@@H]3C(N)C[C@@H](N)C(O)[C@H]3O)OC2C1O (stereo partly shown) :: 4
8. CNC1C(O[C@H]2OC(C)[C@@H](N)[C@H](O)C2O)O[C@H]2CC(N)[C@@H](O[C@H]3CC[C@H](N)CC3N)OC2C1O (stereo partly shown) :: 8
9. CNC1C(O[C@H]2OC(CO)[C@@H](NC(=O)[C@@H](O)CN)[C@H](O)C2O)O[C@H]2C[C@H](N)[C@@H](O[C@@H]3C(N)C[C@@H](N)C[C@H]3O)OC2C1O (stereo partly drawn) [Compound V1-r, 6-deoxy-5-epi-4″-N-(L-isoseryl)apramycin] :: 4
10. CNC1C(O[C@H]2OC(C)[C@@H](N)[C@H](O)C2O)O[C@H]2CC(N)[C@@H](O[C@H]3CC(O)[C@H](N)CC3N)OC2C1O (stereo partly shown) :: 8

Values compiled from patent US11135234B2.
